# Test Details: A CellTox Green Cytotoxicity Assay to monitor cytotoxicity in HepG2 cells - 40 hour (AID 1224879); further: nearly all actives have a fitted effect of over 40% in size
# Condition Description: CellTox Green fluorescence; series mostly up to 76.8 µM
Results filed as inconclusive are left out. The source made the active and inactive calls. The call rests on the fitted dose curve; in most records, active means well fitted activation curve with a large enough effect in the repeat runs; inconclusive means weak or mixed curves; inactive means flat fitted curve, though single readings scatter.
Respond only with the outcome that fits, drawn from 1.0 (active), 0.0 (inactive)

O=S(=O)(O)c1ccccc1/C=C/c1ccc(-c2ccc(/C=C/c3ccccc3S(=O)(=O)O)cc2)cc1 = 0.0
COc1c(C)c2c(c(O)c1C/C=C(\C)CCC(=O)OCCN1CCOCC1)C(=O)OC2 = 0.0
COC(=O)C1=C(C)NC(C)=C(C(=O)OCCN2CCN(C(c3ccccc3)c3ccccc3)CC2)C1c1cccc([N+](=O)[O-])c1 (stereo not drawn) = 0.0

**Query** Given `CCOc1ccc2ccccc2c1C(=O)N[C@@H]1C(=O)N2[C@@H]1SC(C)(C)[C@@H]2C(=O)O` , state the outcome it received in this test.
**Result** 0.0

**Query** Given `C#C[C@]1(O)CC[C@H]2[C@@H]3[C@H](C)CC4=C(CCC(=O)C4)[C@H]3CC[C@@]21C` , state the outcome it received in this test.
**Result** 0.0

**Query** Given `O=C(O)c1ccc2cc(C(=O)O)ccc2c1` , state the outcome it received in this test.
**Result** 0.0

**Query** Given `FC(F)(F)c1cccc(Cl)c1` , state the outcome it received in this test.
**Result** 0.0

**Query** Given `COC(=O)Nc1nc2ccc(C(=O)c3ccccc3)cc2[nH]1` , state the outcome it received in this test.
**Result** 1.0

**Query** Given `O=C(O)c1cc(=O)c2ccccc2o1` , state the outcome it received in this test.
**Result** 0.0

**Query** Given `CCC(C)[O-].CCC(C)[O-].CCOC(=O)/C=C(/C)[O-].[Al+3]` , state the outcome it received in this test.
**Result** 0.0

**Query** Given `COc1ccc2cc1Oc1ccc(cc1)C[C@H]1c3c(cc4c(c3Oc3cc5c(cc3OC)CCN(C)[C@@H]5C2)OCO4)CCN1C` , state the outcome it received in this test.
**Result** 1.0

**Query** Given CCCCCCCCCCCC(=O)OCC(C)OC(=O)CCCCC(=O)O (stereo not drawn) , state the outcome it received in this test.
**Result** 0.0

**Query** Given `Cc1cccc(C(=O)O)c1O` , state the outcome it received in this test.
**Result** 0.0

**Query** Given CC(=O)Oc1cc2c(s1)CCN(C(C(=O)C1CC1)c1ccccc1F)C2 (stereo not drawn) , state the outcome it received in this test.
**Result** 0.0

**Query** Given `O=C(O)c1cccc(C(F)(F)F)c1` , state the outcome it received in this test.
**Result** 0.0

**Query** Given `Cc1cc(C(C)(C)C)cc(C)c1CC1=NCCN1` , state the outcome it received in this test.
**Result** 0.0

**Query** Given `O=C(O)Cc1ccc2c(c1)C(=O)c1ccccc1CO2` , state the outcome it received in this test.
**Result** 0.0

**Query** Given `CCC(CC)(CC(=O)Nc1cccc(/C=C/c2nc(C3CCC3)cs2)c1)C(=O)O` , state the outcome it received in this test.
**Result** 0.0

**Query** Given `Oc1ccccc1O` , state the outcome it received in this test.
**Result** 0.0

**Query** Given CCCCN(CCCC)CC(O)c1cc(Cl)cc2c1-c1ccc(Cl)cc1/C2=C/c1ccc(Cl)cc1 (stereo not drawn) , state the outcome it received in this test.
**Result** 1.0

**Query** Given `OC[C@H]1O[C@H](O[C@H]2O[C@H](CO)[C@@H](O)[C@H](O)[C@H]2O)[C@H](O)[C@@H](O)[C@@H]1O` , state the outcome it received in this test.
**Result** 0.0

**Query** Given `C1CCC(SSC2CCCCC2)CC1` , state the outcome it received in this test.
**Result** 0.0

**Query** Given `COc1ccc(NC(=O)CC(C)=O)cc1` , state the outcome it received in this test.
**Result** 0.0

**Query** Given `O=C(/C=C/c1ccccc1)OC/C=C/c1ccccc1` , state the outcome it received in this test.
**Result** 0.0

**Query** Given `CN(C)C(=O)COC(=O)Cc1ccc(OC(=O)c2ccc(N=C(N)N)cc2)cc1` , state the outcome it received in this test.
**Result** 0.0

###

# Test Details: qHTS assay to identify small molecule agonists of the retinoic acid receptor (RAR) signaling pathway (AID 1159553)
# Condition Description: C3RL4 RARE luciferase reporter, agonist, 6 h
Results filed as inconclusive are left out. Calls of active or inactive are those of the source. Calls follow the shape of the dose curve; as a rule, active = well fitted activation curve with a large enough effect in the repeat runs; inconclusive = weak or mixed curves, or effect the other way; inactive = no such curve, though single readings can be large or run the other way.
Respond only with the outcome that fits, drawn from active, inactive

**Query** Given `COC(=O)Nc1nc2ccc(C(=O)c3ccccc3)cc2[nH]1` , state the outcome it received in this test.
**Result** inactive

**Query** Given `COc1ccc2c(c1)c(CC(=O)OC/C=C(\C)CC/C=C(\C)CCC=C(C)C)c(C)n2C(=O)c1ccc(Cl)cc1` , state the outcome it received in this test.
**Result** inactive

**Query** Given `COc1cc(/C=C/c2ccccc2)oc(=O)c1` , state the outcome it received in this test.
**Result** active

###

# Test Details: qHTS assay to identify small molecule antagonists of the estrogen related receptor (ERR) signaling pathway from Tox21 library (AID 1224848); further: nearly all actives have a fitted effect of over 50% in size
# Condition Description: ERR reporter cell line, luciferase antagonist mode, 18 h; series mostly up to 92.4 µM
Inconclusive results are not listed. The source made the active and inactive calls. Calls follow the shape of the dose curve; as a rule, active = well fitted inhibition curve with a large enough effect in the repeat runs; inconclusive = weak or mixed curves; inactive = no such curve, though single readings can be large or run the other way.
Respond only with the outcome that fits, drawn from t (active), f (inactive)

O=C(O)c1cc(-c2ccc(F)cc2F)ccc1O = f
COc1cccc2c1C(=O)c1c(O)c3c(c(O)c1C2=O)C[C@@](O)(C(C)=O)C[C@@H]3O[C@H]1C[C@H](N)[C@H](O)[C@H](C)O1 = f
CCOC(=O)NNc1ccc(N(CC)CC(C)O)nn1 (stereo not given) = f
CC(=O)Oc1cc2c(s1)CCN(C(C(=O)C1CC1)c1ccccc1F)C2 (stereo not given) = f
CC(=O)c1ccc(C(C)=O)cc1 = f

**Query** Given `CC1(C)[C@@H](O)CC[C@]2(C)[C@H]3C(=O)C=C4[C@@H]5C[C@@](C)(C(=O)O)CC[C@]5(C)CC[C@@]4(C)[C@]3(C)CC[C@@H]12` , state the outcome it received in this test.
**Result** f

**Query** Given `Cc1cc(C(C)(C)C)cc(C)c1CC1=NCCN1` , state the outcome it received in this test.
**Result** f

**Query** Given `Cc1ccc(N/N=c2\c(=O)cc/c(=N\Nc3ccc(S(=O)(=O)O)cc3)c2=O)c(C)c1` , state the outcome it received in this test.
**Result** f

**Query** Given `COc1ccc2cc1Oc1ccc(cc1)C[C@H]1c3c(cc4c(c3Oc3cc5c(cc3OC)CCN(C)[C@@H]5C2)OCO4)CCN1C` , state the outcome it received in this test.
**Result** t

**Query** Given `CCc1ccc(Br)cc1` , state the outcome it received in this test.
**Result** f

###

# Test Details: qHTS assay to identify small molecule agonists of the estrogen receptor beta (ER-beta) signaling pathway - cell viability counter screen (AID 1259380); further: nearly all actives have a fitted effect of over 30% in size
# Condition Description: ER-beta-bla HEK293T viability, CellTiter-Glo luminescence, 16 h; series mostly up to 92.4 µM
Results filed as inconclusive are left out. Calls of active or inactive are those of the source. Calls come from the whole dose curve; as a rule, active = well fitted cell-killing curve with a large enough effect in the repeat runs; inconclusive = weak or mixed curves, or effect the other way; inactive = flat fitted curve, though single readings scatter.
Respond only with the outcome that fits, drawn from TRUE for active, FALSE for inactive

Field: example entries. Status: answers known.
Nc1cc(Cl)c(O)c(Cl)c1 = FALSE
C1CCC(SSC2CCCCC2)CC1 = FALSE

**Query** Given `CCC(COC(=O)CCS)(COC(=O)CCS)COC(=O)CCS` , state the outcome it received in this test.
**Result** FALSE

**Query** Given `[Cl][Pt-2]([Cl])([Cl])[Cl]` , state the outcome it received in this test.
**Result** FALSE

**Query** Given `CCn1c2ccccc2c2cc([N+](=O)[O-])ccc21` , state the outcome it received in this test.
**Result** FALSE

**Query** Given `O=C1CCc2cc(OCCCCc3nnnn3C3CCCCC3)ccc2N1` , state the outcome it received in this test.
**Result** FALSE

**Query** Given CCCCCCCCCCCC(=O)OCC(C)OC(=O)CCCCC(=O)O (stereo unspecified) , state the outcome it received in this test.
**Result** FALSE

**Query** Given `Nc1ccc(NCCO)c([N+](=O)[O-])c1` , state the outcome it received in this test.
**Result** FALSE

**Query** Given `CC(C)CCOC(=O)/C=C/c1ccccc1` , state the outcome it received in this test.
**Result** FALSE

**Query** Given `CCCCCCCCCCCCOCCOCCOCCOCCOCCOCCOCCOCCOCCO` , state the outcome it received in this test.
**Result** TRUE

**Query** Given `CCCCCC/C=C\CCCCCCCC(=O)O` , state the outcome it received in this test.
**Result** FALSE
